System: A498
Assay: NCI tumour cell line growth inhibition, 48 h
Calls of active or inactive are those of the source. Rule as the data show it: active = GI50 up to about 1.1 µM and inactive = higher.
Valid outcomes are listed here; reply with one: active, inactive

// known answers, use as guide
| compound | cat |
| --- | --- |
| COC(=O)C(Cc1nc2ccc(Cl)cc2nc1O)C(=O)C(=O)Nc1cc(C)ccc1C (stereo unspecified) | inactive |
| ClCCCSSCCCCl | inactive |
| CCC1(OC(=O)CN)C(=O)OCc2c1cc1n(c2=O)Cc2cc3ccccc3nc2-1 (stereo unspecified) | active |
| CCOC(=O)c1sc2c(c1OC(=O)c1cccs1)c(=O)n(-c1ccccc1)c(=S)n2-c1ccccc1 | inactive |
| O=[N+]([O-])c1ccc(C2=NOC(c3ccc(Cl)cc3)N2C23CC4CC(CC(C4)C2)C3)cc1 (stereo unspecified) | inactive |
| Cc1noc(NS(=O)(=O)c2ccc(NC(=O)c3ccc4nc5ccccc5c(Nc5ccc(S(=O)(=O)Nc6onc(C)c6C)cc5)c4c3)cc2)c1C | inactive |

Would you mind telling me which call this test gave "O=c1ccc2cc3ccc4cccc5ccc(c2o1)c3c45" ? inactive

Test call for this compound, please: "O=P(c1ccccc1)(c1ccccc1)c1ccc2c(c1)OCCOCCOCCOCCO2" inactive

Which outcome was assigned to "COc1ccc(-n2c(=O)n(-c3ccccc3)c(=O)n2-c2ccc(OC)cc2)cc1" in this test? inactive

Hello, I am checking results. What call was entered for "Cc1cc(O)cc(O)c1C(=O)O[C@]1(C)C(=O)C=C2C=C(/C=C/C(=O)O)OC=C2C1=O" ? inactive

Recorded call for "O=C(O)c1cc(-c2ccc3cc4c(cc3c2)OCO4)nc2ccccc12" ? inactive

What did the test return for COC(=O)C(CCCC1(c2ccccc2)OCCO1)C(C)=O (stereo unspecified) ? inactive

Outcome? "COc1cc(/C=N/n2c(C)n[nH]c2=O)cc(OC)c1OC" inactive

Called result for "CCCCSc1n/c(=C\c2ccc(N(C)C)cc2)c2nnnn12" inactive

Call for entry COC(=O)C1Cc2ccc3c(c2C1=O)CCCC3 (stereo unspecified) : inactive

Hi, sorry to bother you, what did the test record for "Cc1ccc2c(O)cc(-c3ccc(Cl)s3)nc2n1" ? inactive

Ref: ChEMBL document CHEMBL1201862
